Source: PubChem BioAssay (NCI)

Quick reference for TGI among some compounds
System: BT-549 breast
experiment: NCI tumour cell line growth inhibition, 48 h

CC(=O)C1C(=O)C(=O)N(c2ccc(Br)cc2)C1=O (stereo not drawn) = > 100 µM
CC(=O)n1c(-c2ccc(Cl)c(Cl)c2)cn(-c2ccc(Cl)cc2)c1=O = 36.6 µM

Please examine the following record next.
State, in one line, measured TGI of CCOC(=O)NC(=S)NC(C)c1ccccc1 (stereo not drawn)
> 100 µM

====

Quick reference for TGI among some molecules
Tested on: TK-10 renal
experiment: NCI tumour cell line growth inhibition, 48 h

O=C(O)CCc1nc2cc3ccccc3cc2[nH]c1=O = > 100 µM
CNC(=O)c1cncc(/C=C/c2c(Cl)cccc2Cl)c1 = > 25 µM
CCCCCCC(=O)OC[n+]1cccc(-c2c(COC(=O)NC(C)C)c(COC(=O)NC(C)C)c3n2CCC3)c1 = > 100 µM
O=C1/C(=C\c2ccccc2)c2ccccc2N1/N=C\c1ccccc1 = > 100 µM
Cc1ccccc1NC(=O)c1cc2ccccc2cc1O = > 100 µM

Please examine the following record next.
Output reported TGI of the molecule `Cn1c2ccccc2c2[nH]c3ccccc3c(=O)c21` on TK-10 renal.
> 100 µM
